Study Target: T1, Activin B (Homo sapiens (Human), UniProt P09529 293-407)
T1 construct: also called Mature Activin B; mature Activin B
T1 sequence: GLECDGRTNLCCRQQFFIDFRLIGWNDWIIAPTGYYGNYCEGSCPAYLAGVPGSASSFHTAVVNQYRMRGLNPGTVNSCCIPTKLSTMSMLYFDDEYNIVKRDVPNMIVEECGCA
Method Description: ELISA, coated antigen, OD450
Measure: fold-change of OD 450 over negative control (BSA) (fold)
Numbers only, in fold.

Worked examples follow.
Binder: AB340 (antibody, IgG1, V domains shown) VH: EVQLVESGGGLVQPGGSLRLSCAASGFTASRNYMSWVRQAPGKGLELVASISGSGDYTYYPDSVKGRFTISRDNAKNSLYLQMNSLRAEDTAVYYCARSPRGPRLLGYYYGMDVWGQGTTVTVSS VL: DIVMTQSPLSLPVTPGEPASISCRSSRSLVHGSGHNYLHWYLQKPGQSPQLLIYGASTRVAGVPDRFSGSGSGTDFTLKISRVEAEDVGVYYCMQGTQAPRTFGGGTKVEIK
Measure Unit: fold
Data Value: 1.04
--
Binder: AB433 (antibody, IgG1, V domains shown) VH: QVQLQESGPGLVKPSQTLSLTCTVSGFPLSTSRMGVNWIRQPPGKGLEWIGYINPSGATDYNPSLKSRVTMSVDTSKNQFSLKVNSVTAADTAVYYCARAGYPDVWGKGTTVTVSS VL: EIVMTQSPATLSLSPGERATLSCRASQSVRTSLAWYQQKPGQAPRLLIYDTSIRAAGIPARFSGSGSGTDFTLTISSLEPEDFAVYYCQQYGNWHFGGGTKVEIK
Measure Unit: fold
Data Value: 2.5
--
Binder: AB341 (antibody, IgG1, V domains shown) VH: EVQLVESGGGLVQPGGSLRLSCAASGYTFSNYGMSWVRQAPGKGLELVASISKSGSSIYYPDSVKGRFTISRDNAKNSLYLQMNSLRAEDTAVYYCARLPRLAWNYYYGMDVWGQGTTVTVSS VL: DIVMTQSPLSLPVTPGEPASISCRSSQSLLHSNEKNYLHWYLQKPGQSPQLLIYDASKRASGVPDRFSGSGSGTDFTLKISRVEAEDVGVYYCVQDLHTPFTFGGGTKVEIK
Measure Unit: fold
Data Value: 0.98

Can you give me fold-change of OD 450 over negative control (BSA) for all of these, one by one?
1. AB345 (antibody, IgG1, V domains shown) VH: EVQLVESGGGLVQPGGSLRLSCAASGFTSSGYWMSWFRQAPGKGLELVASIGTAGVTYYPDSVKGRFTISRDNAKNSLYLQMNSLRAEDTAVYYCARGPHGPQQRLRFDPWGQGTLVTVSS VL: DIVMTQSPLSLPVTPGEPASISCRSSQSLLSSYGYHNLHWYLQKPGQSPQLLIYMGSIRAPGVPDRFSGSGSGTDFTLKISRVEAEDVGVYYCMQGTQAPRTFGGGTKVEIK
2. AB431 (antibody, IgG1, V domains shown, also called mAb 431) VH: EVQLVESGGGLVQPGGSLRLSCAASGFTSSNHWMSWVRQAPGKGLELVASIGPKGLGTYYPDSVKGRFTISRDNAKNSLYLQMNSLRAEDTAVYYCARDVRGWRALYYYYGMDVWGQGTTVTVSS VL: DIVMTQSPLSLPVTPGEPASISCRSSQSLLHVTGYNYLHWYLQKPGQSPQLLIYGASSRAAGVPDRFSGSGSGTDFTLKISRVEAEDVGVYYCMQSTQWPHTFGGGTKVEIK

[0.76, 0.96]
